Biological target: Brd2(2) Leu383-Ile (Homo sapiens, UniProt P25440, L383I)
Sequence (P25440 344-453 L383I limits assumed): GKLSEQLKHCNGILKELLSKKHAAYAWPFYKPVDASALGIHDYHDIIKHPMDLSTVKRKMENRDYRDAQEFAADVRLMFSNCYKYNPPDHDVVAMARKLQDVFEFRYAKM
Experiment: DSF thermal shift
Type: binding
Set-up: Plasmids of the eight single BET bromodomain constructs Brd2(1), Brd2(2), Brd3(1), Brd3(2); His6 (N); made in house; host or cells: E. coli BL21(DE3)
Details: mutant
Give ΔTm Brd2(2)*(Leu383-Ile) for every item shown.

Example results:
QUERY: Can you look up the measured ΔTm Brd2(2)*(Leu383-Ile) of COC(=O)[C@H](C)[C@@H]1N=C(c2ccc(Cl)cc2)c2cc(OC)ccc2-n2c(C)nnc21 (racemic) [Compound 7] for me?
RESULT: 9.6 ± 0.1 K

QUERY: Also, CC[C@H](C(=O)OC)[C@@H]1N=C(c2ccc(Cl)cc2)c2cc(OC)ccc2-n2c(C)nnc21 (racemic) [Compound 14] please.
RESULT: 0.9 ± 0.3 K

QUERY: Also, COC(=O)[C@@H](C)[C@@H]1N=C(c2ccc(Cl)cc2)c2cc(OC)ccc2-n2c(C)nnc21 (racemic) [Compound 6] please.
RESULT: 0.3 ± 0.2 K

Pending molecule:
QUERY: Can you look up the measured ΔTm Brd2(2)*(Leu383-Ile) of COC(=O)CC1(C)N=C(c2ccc(Cl)cc2)c2cc(OC)ccc2-n2c(C)nnc21 (racemic) [Compound 5] for me?
RESULT: 6.8 ± 0.1 K
